biological target: EHMT1 (Homo sapiens, UniProt Q9H9B1); experiment: EHMT1 enzyme assay on peptide substrate (EHMT1 PEP); format: biochemical; details: Table VII; read-out: EHMT1 PEP IC50
Sequence (Q9H9B1 whole entry, species assumed): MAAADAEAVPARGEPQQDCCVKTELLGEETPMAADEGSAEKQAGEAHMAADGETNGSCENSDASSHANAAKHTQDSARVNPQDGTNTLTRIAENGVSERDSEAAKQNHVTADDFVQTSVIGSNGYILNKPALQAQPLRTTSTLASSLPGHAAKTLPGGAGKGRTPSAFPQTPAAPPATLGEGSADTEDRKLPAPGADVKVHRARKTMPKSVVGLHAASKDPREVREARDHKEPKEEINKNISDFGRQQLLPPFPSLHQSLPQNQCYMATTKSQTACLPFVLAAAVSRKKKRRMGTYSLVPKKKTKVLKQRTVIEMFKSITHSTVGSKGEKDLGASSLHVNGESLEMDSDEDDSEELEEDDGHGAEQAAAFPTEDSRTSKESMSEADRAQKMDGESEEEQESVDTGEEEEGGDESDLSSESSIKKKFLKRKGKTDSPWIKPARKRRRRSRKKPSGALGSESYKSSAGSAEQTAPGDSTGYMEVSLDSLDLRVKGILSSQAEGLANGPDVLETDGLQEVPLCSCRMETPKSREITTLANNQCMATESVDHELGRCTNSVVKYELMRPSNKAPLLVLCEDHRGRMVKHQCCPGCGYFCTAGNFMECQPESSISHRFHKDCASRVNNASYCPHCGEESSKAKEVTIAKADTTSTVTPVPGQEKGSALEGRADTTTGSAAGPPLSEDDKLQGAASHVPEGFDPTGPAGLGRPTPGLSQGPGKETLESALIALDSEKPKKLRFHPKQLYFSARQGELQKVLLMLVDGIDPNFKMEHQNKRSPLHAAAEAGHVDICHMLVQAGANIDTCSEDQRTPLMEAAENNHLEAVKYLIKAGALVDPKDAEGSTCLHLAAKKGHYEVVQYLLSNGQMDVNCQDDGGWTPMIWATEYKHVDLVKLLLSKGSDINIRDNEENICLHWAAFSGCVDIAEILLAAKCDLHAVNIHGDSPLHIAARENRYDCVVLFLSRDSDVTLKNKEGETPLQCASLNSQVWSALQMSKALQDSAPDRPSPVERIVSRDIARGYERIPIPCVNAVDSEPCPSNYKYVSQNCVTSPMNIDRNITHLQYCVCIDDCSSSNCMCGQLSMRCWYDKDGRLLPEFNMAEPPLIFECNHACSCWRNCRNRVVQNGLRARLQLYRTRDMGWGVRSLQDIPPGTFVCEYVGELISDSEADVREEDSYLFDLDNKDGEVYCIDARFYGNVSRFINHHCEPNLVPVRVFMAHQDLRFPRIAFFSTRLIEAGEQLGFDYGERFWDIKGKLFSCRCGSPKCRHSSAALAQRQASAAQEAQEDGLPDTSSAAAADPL
What IC50 was measured for each of the following?

Molecule	Target Or System	IC50
CNc1ccnc(Nc2ccc(OC)c(OCC3(O)CCN(C)C3)c2)n1 (centres unmarked) [Compound 1097]	EHMT1 (Homo sapiens, UniProt Q9H9B1)	1 to 10 µM

The following molecules each have a reported value; give each one's IC50.
1. CNc1ccnc(Nc2ccc(OC)c(OCC[C@H]3CCCN3)c2)n1 [Compound 1074]
2. CNc1cc2cc(OCCCN3CCCC3)c(OC)cc2cc1Cl [Compound 1043]
3. CNc1cc(C)nc(Nc2ccc(OC)c(COCCN3CCCC3)c2)n1 [Compound 1104]
4. CNc1cc(C2CCOCC2)c2cc(OC)c(CNCCN3CCCC3)cc2n1 [Compound 1111]

# output
1: 0.1 to 1 µM; 2: 0.1 to 1 µM; 3: < 0.1 µM; 4: < 0.1 µM
